system: ANKK1; conditions: concentration: 1 μM,replicates: in singlicate; n = 1;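 note: KINOMEscan kinase panel screen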
reported.property: %Inh (%)

# compound, assayed.target, measured.number
measured = [
    ("CC(=O)Nc1ccc(-c2cc3ncnc(SCC(=O)O)c3s2)cc1", "ANKK1", 22),
    ("O=C(Nc1ccc(Oc2ccc3nc(NC(=O)C4CC4)cn3n2)c(F)c1)c1cccn(-c2ccccc2)c1=O", "ANKK1", 0),
    ("Cn1ccc2ncnc(Oc3ccc(NC(=O)Nc4cccc(C(F)(F)F)c4)c(F)c3)c21", "ANKK1", 0),
    ("COc1cccc(CNC(=O)NC2CCN(c3ccnc(Nc4cc(OC)c(OC)c(OC)c4)n3)C2)c1 (centres unmarked) [GSK1379765]", "ANKK1", 42),
    ("CN(c1ccccc1CNc1nc(Nc2ccc3c(c2)CC(=O)N3)ncc1C(F)(F)F)S(C)(=O)=O", "ANKK1", 0),
    ("COc1cc(Nc2nccc(N3CCC(NC(=O)c4cccc(C#N)c4)C3)n2)cc(OC)c1OC (centres unmarked) [GSK1379751]", "ANKK1", 24),
    ("Cc1cccc(-c2nc(Nc3ccncc3)c3sccc3n2)n1 [GW869641]", "ANKK1", 12),
    ("COc1cccc(OC)c1C(=O)Nc1cccc(-c2nn3ccccc3c2-c2ccnc(Nc3cccc(F)c3)n2)c1 [GSK361065]", "ANKK1", 93.2),
]

* * *

Listed compounds paired with reported %Inh
tested on: MELK; conditions: concentration: 1 μM,replicates: in singlicate; n = 1

# compound, %Inh / %
records = [
    ("Cc1ccn2nc(-c3ccc(F)cc3)c(-c3ccncc3)c2c1.Cl", 7),
    ("O=C(Nc1n[nH]c2cc(-c3ccco3)ccc12)C1CC1", 0),
    ("Nc1nccc(-c2ccc3c(N)n[nH]c3c2)n1", 24),
    ("CC(C)S(=O)(=O)N1CCN(Cc2ccc3c(c2)nc(NC(=O)c2ccsc2)n3C[C@H](O)c2ccccc2)CC1", 28),
    ("COc1cccc(CNC(=O)NC2CCN(c3ccnc(Nc4cc(OC)c(OC)c(OC)c4)n3)C2)c1 (stereo not drawn)", 15),
    ("Cc1n[nH]c2cc(Nc3ccnc(Nc4cccc(CN5CCOCC5)c4)n3)ccc12", 0),
    ("O=C(Nc1ccc(Oc2ccc3nc(NC(=O)C4CC4)cn3n2)c(F)c1)c1cccn(-c2ccccc2)c1=O", 18),
    ("Cc1cccc2c(-c3ccncc3)c(-c3ccc(F)cc3)nn12.Cl", 0),
    ("Cl.c1ccc(Oc2ccc(Nc3ccnc4cc(-c5ccc(CN6CCNCC6)o5)ccc34)cc2)nc1", 0),
    ("CCn1c(-c2nonc2N)nc2cncc(Br)c21", 35),
    ("CS(=O)c1ccc(-c2coc3ccc(-c4n[nH]c(=O)o4)cc23)cc1 (stereo not drawn)", 0),
    ("C[C@@H]1CNc2c(sc3ccc4nc(-c5ccncc5)ccc4c23)C(=O)N1", 0),
    ("CC(=O)c1c(-c2ccncc2)[nH]c(-c2ccncc2)c1C", 0),
    ("O=C(NCC1CC1)c1ccc(-c2cc(C(=O)NC3CC3)ccc2F)cc1", 17),
    ("CN(c1ccccc1CNc1nc(Nc2ccc3c(c2)CC(=O)N3)ncc1C(F)(F)F)S(C)(=O)=O", 94.3),
    ("N#Cc1cccc(C(=O)NC2CCN(c3ccnc(Nc4ccc(F)cc4)n3)C2)c1 (stereo not drawn)", 0),
    ("OCCn1cc(-c2cnc3nnn(Cc4ccc5ncccc5c4)c3n2)cn1", 32),
    ("C[C@@H](Oc1cc(-n2cnc3cc(-c4cnn(C)c4)ccc32)sc1C(N)=O)c1ccccc1Cl", 15),
]
